Experiment: Pharmacokinetic study of the Q-markers in beagle dogs
Conditions: beagle, dog, in vivo, po
value.kind: AUC(0-t) (ng·h/mL)
One number for each entry, in ng·h/mL.

Data point: `COc1ccc2c(c1OC)CN(C)CCc1cc3c(cc1C(=O)C2)OCO3` ; AUC(0-t) = 8.31

====

Experiment: Pharmacokinetic study of the Q-markers in beagle dogs
Conditions: beagle, dog, in vivo, iv
value.kind: half-life (h)
Numbers only, in h.

Data point: `COc1ccc2c(c1OC)CN(C)CCc1cc3c(cc1C(=O)C2)OCO3` ; half-life = 5.52

====

Assay: Caco-2 transport assay (Peff)
Conditions: human
Assign Papp at 120 min to each entry below.
In your response, the unit should come after the numeric value.

Reference set (3 entries):
Data point: COc1cc2c(cc1OC)[C@@H]1Cc3ccc(OC)c(OC)c3CN1CC2 [Tetrahydropalmatine, tetrahydropalmatine] ; Papp at 120 min = 3.76 ×10⁻⁶ cm/s

Data point: `COc1ccc2c(c1OC)CN(C)CCc1cc3c(cc1C(=O)C2)OCO3` ; Papp at 120 min = 13.4 ×10⁻⁶ cm/s

Data point: `COc1cc2c(cc1OC)[C@H]1[C@@H](C)c3ccc(OC)c(OC)c3CN1CC2` ; Papp at 120 min = 3.94 ×10⁻⁶ cm/s

More entries:
Data point: `COc1c2ccoc2c(OC[C@@H](O)C(C)(C)O)c2oc(=O)ccc12` ; Papp at 120 min = 8.95 ×10⁻⁶ cm/s
